Target: human recombinant MMP-14 catalytic domain (Homo sapiens)
Construct: a panel of ten human recombinant MMP catalytic domains
Assay: Recombinant MMP fluorescent assay kit (OmniMMP substrate)
pIC50: −log10 of the molar value.

# MOLECULE, TESTED_ON, pIC50
rows = [
    ("Cc1cc(=O)c(O)c(C(=O)NCc2ccc(-c3ccc(-c4ccccc4)cc3)cc2)o1 [Compound 9]", "human recombinant MMP-14 catalytic domain (Homo sapiens)", "4.30 to 5.70"),
]

----------
Target: human recombinant MMP-3 catalytic domain (Homo sapiens, UniProt P08254)
Construct: a panel of ten human recombinant MMP catalytic domains
Sequence (P08254 100-272 limits assumed): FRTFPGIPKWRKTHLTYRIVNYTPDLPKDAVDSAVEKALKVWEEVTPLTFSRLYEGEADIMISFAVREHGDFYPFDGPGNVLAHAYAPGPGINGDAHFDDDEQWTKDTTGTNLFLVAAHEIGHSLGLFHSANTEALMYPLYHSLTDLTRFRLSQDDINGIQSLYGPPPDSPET
Assay: Recombinant MMP fluorescent assay kit (OmniMMP substrate)

# COMPOUND_SMILES, TESTED_ON, IC50
data = [
    ("Cc1cc(=O)c(O)c(C(=O)NCc2ccc(-c3ccc(-c4ccccc4)cc3)cc2)o1", "human recombinant MMP-3 catalytic domain (Homo sapiens, UniProt P08254)", "> 50 µM"),
]

These measurements were taken from paper PMC4550771.
